# Protocol summary: Novel Modifiers of Survival Motor Neuron (SMN) Protein: Gene Identification via Genome-wide siRNA Screen;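 note: luminescence tracks full-length SMN protein made from the SMN2 reporter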
# Condition context: HEK293T SMN2-luciferase reporter, siRNA knockdown, 72 h; actives lie on both sides
Among all 31,000 sequences or so, about 1,400 (4.5%) were called active.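 Rule for the calls: active = median seed-adjusted z-score above 1 or below -1; inactive = the rest.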 Only a selection was taken, and actives are over-represented in it overall.
Outcome (select one): active, inactive

Problem: Kindly provide the recorded test outcome for the following sequence: UCAUCGAACUGAAUACCAATT against STARD3
Result: inactive

Problem: Try the sequence GCAGUAGAAGUAUCCGGGATT against THSD4
Result: inactive

Problem: How about this sequence: GAACUUAGCUAAAUUGACUTT against BCHE
Result: inactive

Problem: Can you handle CUCUGAGUAUGUGACCGAATT against XPNPEP1 next?
Result: active

Problem: Next entry: AUGGUUACCUGUUCACCUATT against SLC7A10
Result: inactive

Problem: Would you kindly repeat that for GGACGAGAAUGGGAAGAUUTT against ARD1A ?
Result: active
